# conditionsUsed: in acetone, 278.15 K
readout: solubility (mole fraction)
// return just the number, without any unit appended

Could you tell me which solubility (mole fraction) is on file for `CCOc1cc(C=O)ccc1O` ?
0.216

====

# conditionsUsed: in acetone, 293.15 K
readout: solubility (mole fraction)

Which solubility (mole fraction) value is on record for `CCOc1cc(C=O)ccc1O` ?
0.3

====

# conditionsUsed: in isopropanol, 308.15 K
readout: solubility (mole fraction)
// response body must contain only the number

Query (molecule): `CCOc1cc(C=O)ccc1O` ; field requested: solubility (mole fraction)
0.221

====

# conditionsUsed: in acetone, 273.15 K
readout: solubility (mole fraction)
API note: the answer field is a bare number with no unit suffix.

Data request, read-out solubility (mole fraction), for `CCOc1cc(C=O)ccc1O`
0.199
